Parameter: melting point. Scope: all listed entries.

# chemSmiles, melting point
measured = [
    ("O=C(CBr)c1ccc(Br)c(Br)c1", "60 to 61 °C"),
    ("O=C(CCl)c1csc(C(=O)CCl)c1", "154 to 155 °C"),
    ("O=C(CCl)c1cc(Cl)sc1Cl", "43 to 44 °C"),
    ("O=C(CCl)c1scc(Br)c1Br", "86 to 88 °C"),
    ("O=C(c1ccc(I)cc1)C(Br)Br", "77 to 78 °C"),
    ("Nc1c(Br)cc(C(=O)CBr)cc1Br", "146 to 147 °C"),
    ("CC(=O)c1csc(C(=O)CCl)c1", "118 to 119 °C"),
    ("O=C(c1ccc(C(F)(F)F)cc1)C(Br)Br", "40 to 41 °C"),
    ("Cc1c(C(=O)CCl)csc1C(=O)CCl", "155 to 156 °C"),
]
